Biological target: T1, Human EphA2 (human, UniProt P29317 24-976)
T1 construct: Endogenous EphA2 in fresh frozen human tumor tissue sections, not a recombinant protein; also called ephrin receptor A2; hEphA2
Test: IHC/IF on frozen human tumor tissue: UCEC-papillary
observedProperty: IHC score

INSERT INTO results (binder, reading) VALUES
  ('AB-009816 (antibody, mouse IgG2a, V domains shown, Made on a mouse IgG2a framework) VH: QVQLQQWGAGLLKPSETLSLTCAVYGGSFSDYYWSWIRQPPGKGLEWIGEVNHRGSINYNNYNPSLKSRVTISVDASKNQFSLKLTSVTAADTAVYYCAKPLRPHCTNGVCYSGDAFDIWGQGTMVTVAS VL: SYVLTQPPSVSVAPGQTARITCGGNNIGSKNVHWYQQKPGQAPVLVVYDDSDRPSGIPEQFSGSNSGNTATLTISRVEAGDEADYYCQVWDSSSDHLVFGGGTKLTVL', 2);
